- assaySystem: human Neurokinin, NK2 Receptor, TACR2 (gene 6865)
- testSummary: NVS_GPCR_hNK2: NovaScreen (NVS) G Protein-Coupled Receptor Assay for human Neurokinin, NK2 Receptor (AID 2283278);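 note: actives reduce bound radioligand signal relative to DMSO baseline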
- Method: NVS_GPCR_hNK2 is a biochemical, single-readout assay that uses extracted gene-proteins from CHO in a cell-free assay. Measurements were taken 4 hours after chemical dosing in a 96-well plate.NVS_GPCR_hNK2 is one of one assay component(s) measured or calculated from the NVS_GPCR_hNK2 assay. […] This assay endpoint, NVS_GPCR_hNK2, was analyzed in the positive analysis fitting direction relative to DMSO as the negative control and baseline of activity. […]
Records with an inconclusive call do not appear. Calls of active or inactive are those of the source. Rule for the calls: active = hit-call score of the fitted dose curve at least 0.9, where 1 is the maximum; inconclusive = response in the unintended direction; inactive = score below 0.9.
Thanks in advance; please answer with one of these: active, inactive

CCOC(=O)CCC(=O)OCC = inactive
COc1ccc(S(=O)(=O)N2C(=O)[C@@](c3ccccc3OC)(N3C[C@H](O)C[C@H]3C(=O)N(C)C)c3cc(Cl)ccc32)c(OC)c1 = active
COc1cc(-c2nc(NC(=O)c3cc4cc(C)cc(C)c4n3CC(=O)O)sc2CCC2CCCCC2)c(OC)cc1Cl = active
CN1CCN(Cc2cc(-c3ccc4[nH]c(=O)oc4c3)co2)[C@@H](c2ccc(F)cc2)C1 = active

Q: Record lookup: outcome of this test for CCCCC(CC)COC(=O)CC(C(=O)OCC(CC)CCCC)S(=O)(=O)O (stereo unspecified) ?
Ans: active

Q: What about this molecule? `CCCc1cc(=O)[nH]c(=S)[nH]1`
Ans: inactive

---

- testSummary: Tanguay_ZF_120hpf_PIG_legacy: (Legacy) Oregon State University Tanguay Lab 120 Hour Post-fertilization zebrafish Assay for Pigmentation Malformation (AID 2283650);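 note: dechorionated Tropical 5D zebrafish embryos exposed singly from 6 to 120 hpf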
Inconclusive results are not listed. Active and inactive are the calls of the source. Rule for the calls: active = hit-call score of the fitted dose curve at least 0.9, where 1 is the maximum; inconclusive = response in the unintended direction; inactive = score below 0.9.
Bench note: report the call from active, inactive

Reference set, count: 3
CCOC(=O)CCC(=O)OCC = inactive
CC(=O)Oc1ccccc1C(=O)O = inactive
Cc1cc(=O)[nH]c(=S)[nH]1 = inactive

Q: Any idea what this test logged for `Cc1cc(NC(=O)C(=O)O)cc(C)c1Oc1ccc(O)c2c1CCC2` ?
Ans: active

Q: Now the molecule `COc1cc(-c2nc(NC(=O)c3cc4cc(C)cc(C)c4n3CC(=O)O)sc2CCC2CCCCC2)c(OC)cc1Cl`
Ans: inactive

Q: Next up: `CCCCCCCC=O`
Ans: inactive

Q: Queued: `Cc1ccc(N(C)C)cc1`
Ans: inactive

Q: Next record, please: `NCC1(Cc2noc(=O)[nH]2)CCCCC1`
Ans: inactive

Q: Would you kindly repeat that for `Cc1ccccc1Cl` ?
Ans: inactive

Q: Now consider `CC=Cc1ccc(O)c(OC)c1` .
Ans: inactive

Q: Repeat with `Nc1nc(N)c2nc(CNc3ccc(C(=O)N[C@@H](CCC(=O)O)C(=O)O)cc3)cnc2n1`
Ans: inactive

Q: What would you report for `O=c1c(O)c(-c2ccc(O)c(O)c2)oc2cc(O)cc(O)c12` ?
Ans: inactive

Q: Can you handle `CCOC(=O)C(C)(C)Oc1ccc(Cl)cc1` next?
Ans: inactive

Q: Entry to check: `Oc1ccc2ccccc2c1N=Nc1ccccc1`
Ans: inactive

---

- testSummary: ATG_ISRE_CIS: Attagene CIS-FACTORIAL HepG2 Assay for human Interferon Regulatory Factor 1 (IRF1) binding to an Interferon-Stimulated Response Element (ISRE) (AID 2282948)
- conditionNotes: HepG2 ISRE cis-reporter (Attagene), mRNA transcription readout; actives raise or lower the signal
Calls of active or inactive are those of the source. The calls were made as follows: active = hit-call score of the fitted dose curve at least 0.9, where 1 is the maximum; inactive = score below 0.9.
Lab note: assign the record to one of active, inactive

Some solved cases for reference:
C=CCc1ccc(O)c(OC)c1 = inactive
O=C(O)Cc1ccccc1Nc1c(Cl)cccc1Cl = inactive
OC[C@@H](O)[C@@H](O)[C@H](O)[C@H](O)CO = inactive
Cc1cccc(C)c1O = inactive
CC(=O)Oc1ccccc1C(=O)O = inactive

Q: GET /call?item= `Cc1ccccc1Cl` returns the recorded outcome of this test.
Ans: inactive

Q: Also `CCc1c(C(=O)NN2CCCCC2)nn(-c2ccc(Cl)cc2Cl)c1-c1ccc(Br)cc1` , if possible.
Ans: active

Q: What about `Oc1ccc2c(c1)OC[C@@H](N1CCC(O)(c3ccc(F)cc3)CC1)[C@H]2O` ?
Ans: inactive

Q: Same again, this time with `CCCc1cc(=O)[nH]c(=S)[nH]1`
Ans: inactive

Q: Same thing, different compound: `CC(C)(C)c1cc(O)c(C(C)(C)C)cc1O`
Ans: active

Q: Moving on to `CN1CCCC1=O`
Ans: inactive

Q: // next record `Cc1ccc(C)c(C)c1`
Ans: inactive

Q: Ok, now `CCCCOC(=O)CCCCCCCCC(=O)OCCCC`
Ans: inactive

Q: Consider next the compound `CCCCCCCCCCCCCCCC` in the same way.
Ans: inactive

Q: Another compound to check: `CNC(=O)[C@H]1O[C@@H](n2cnc3c(NCc4cc(Cl)ccc4OCc4cc(C)no4)ncnc32)[C@H](O)[C@@H]1N`
Ans: inactive

---

- System: guinea pig Muscarinic, Peripheral (Mperiperal) Receptor, Non-selective Binding, gene 100379235
- testSummary: NVS_GPCR_gMPeripheral_NonSelective: NovaScreen (NVS) G Protein-Coupled Receptor Assay for guinea pig Muscarinic, Peripheral (Mperiperal) Receptor, Non-selective Binding (AID 2283250)
Results filed as inconclusive are left out. Activity calls are given as the source filed them. The calls were made as follows: active = hit-call score of the fitted dose curve at least 0.9, where 1 is the maximum; inconclusive = response in the unintended direction; inactive = score below 0.9.
experimentalReadout: AC50

Solved entries:
CCCCC(CC)COC(=O)CC(C(=O)OCC(CC)CCCC)S(=O)(=O)O (configuration not stated) = 25 µM (active)
CCOC(=O)CCC(=O)OCC = inactive
COc1ccc(S(=O)(=O)N2C(=O)[C@@](c3ccccc3OC)(N3C[C@H](O)C[C@H]3C(=O)N(C)C)c3cc(Cl)ccc32)c(OC)c1 = 13.8 µM (active)
CN1CCN(Cc2cc(-c3ccc4[nH]c(=O)oc4c3)co2)[C@@H](c2ccc(F)cc2)C1 = inactive
NC(=O)Cn1c(=O)cc(CCN2CCN(c3nccc4sccc34)CC2)c2ccc(F)cc21 = inactive
COc1ccc2c(c1)c(CC(=O)O)c(C)n2C(=O)c1ccc(Cl)cc1 = inactive

Q: Look up AC50 for this compound: `CNCc1cc(F)ccc1Oc1ccc(Cl)c(Cl)c1`
Ans: 25 µM (active)

---

- testSummary: Tanguay_ZF_120hpf_JAW_legacy: (Legacy) Oregon State University Tanguay Lab 120 Hour Post-fertilization zebrafish Assay for Jaw Malformation (AID 2283638)
Inconclusive results are not listed. Calls of active or inactive are those of the source. Rule for the calls: active = hit-call score of the fitted dose curve at least 0.9, where 1 is the maximum; inconclusive = response in the unintended direction; inactive = score below 0.9.
Form entry, call: pick from t for active, f for inactive

Cc1ccccc1Cl = f
C[C@]12C=CC(=O)C=C1CC[C@@H]1[C@@H]2C(=O)C[C@@]2(C)[C@H]1CC[C@]2(O)C(=O)CO = f
Cc1ccc(C)c(O)c1C = f
CCOc1ccc2c(c1)C(C)=CC(C)(C)N2 = t
CC(C)c1ccc(C(=O)N=C(N)N)cc1S(C)(=O)=O = f

Q: Test call for this compound, please: `CNCc1cc(F)ccc1Oc1ccc(Cl)c(Cl)c1`
Ans: f

Q: Also `CCOC(=O)CCC(=O)OCC` , if possible.
Ans: f

Q: Also, `CC(=O)OCCOCCOCCOC(C)=O` please.
Ans: f

Q: Input `NCC1(Cc2noc(=O)[nH]2)CCCCC1`
Ans: f

Q: Now the same for `CCCCCC(=O)O`
Ans: f

Q: Input `Cc1nc(C)nc(N2C[C@@H](C)N(c3ccnc([C@@H](C)O)n3)[C@@H](C)C2)n1`
Ans: f

Q: Try this compound too: `CCCCCCCCCCO`
Ans: f

Q: Repeat for the following compound: `COc1cc(C=O)ccc1O`
Ans: t

Q: Same for `OC[C@@H](O)[C@@H](O)[C@H](O)[C@H](O)CO`
Ans: f

Q: Record: `C[Si]1(C)O[Si](C)(C)O[Si](C)(C)O[Si](C)(C)O1`
Ans: f

Q: Same question for `O=c1c(O)c(-c2ccc(O)c(O)c2)oc2cc(O)cc(O)c12` please.
Ans: f

---

- Read-out: Early growth response protein 1 (EGR1) transcription factor, EGR1 (gene 1958)
- testSummary: LTEA_HepaRG_EGR1: Life Technologies and Expression Analysis (LTEA) Assay for Early growth response protein 1 (EGR1) transcription factor using HepaRG (AID 2283490)
- conditionNotes: mRNA level, 48 h; actives raise or lower the signal
The source made the active and inactive calls. How the source made its calls: active means hit-call score of the fitted dose curve at least 0.9, where 1 is the maximum; inactive means score below 0.9.
Answer with one of the outcomes active, inactive

O=C(O)CCCCC(=O)O = inactive

Q: Each compound tested received a call. Report the one for `Oc1ccc2c(c1)OC[C@@H](N1CCC(O)(c3ccc(F)cc3)CC1)[C@H]2O` .
Ans: inactive

Q: Continue with `CCOC(=O)C(C)(C)Oc1ccc(Cl)cc1`
Ans: inactive

Q: Ok, now `Nc1ccccc1N`
Ans: active

Q: // query: `COc1ccc2c(c1)c(CC(=O)O)c(C)n2C(=O)c1ccc(Cl)cc1`
Ans: inactive
